Reference source for all entries: PubChem BioAssay AID1159580

- EXPERIMENT_SUMMARY: chemical genetic growth profiling, strain panel (AID 1159580);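 also: tested at 20 µM; growth read once vehicle control cultures reached saturation at 30 °C; 1 = growth at the plate median or of vehicle wells; lower values mean less growth of the strain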
- CONDITION_INFO: S. cerevisiae deletion strains, growth OD, locus YJL187C, strain SWE1, stronger effect = lower value
The campaign covered roughly 5,500 compounds. About 2,000 (36%) were called active. Inconclusive results (about 18%) are left out. The list shows a part of the results.
Examples of compounds with documented normalized growth follow.
PROPERTY_MEASURED: normalized growth

- COMPOUND: "CC(C)(C)c1cc(C(=O)NN)n[nH]1"
  MEASURED: 0.988
- COMPOUND: "COCC1=C(C(=O)OC(C)OC(=O)OC(C)C)N2C(=O)[C@@H](NC(=O)/C(=N\\OC)c3csc(N)n3)[C@H]2SC1 (some centres not stated)"
  MEASURED: 0.982
- COMPOUND: "CC(=O)NS(=O)(=O)c1ccc(N)cc1"
  MEASURED: 1.01
- COMPOUND: "O=c1c(O)c(-c2ccccc2)oc2cccc(O)c12"
  MEASURED: 0.84
- COMPOUND: "CCCN(CCC)c1c([N+](=O)[O-])cc(C(F)(F)F)cc1[N+](=O)[O-]"
  MEASURED: 1.01
- COMPOUND: "O=C(O)[C@H]1/C(=C/CO)O[C@@H]2CC(=O)N21"
  MEASURED: 0.995
- COMPOUND: "O=C(CSCc1c(Cl)cccc1Cl)NNC(=S)NC1CC2C=CC1C2 (configuration not stated)"
  MEASURED: 0.979
- COMPOUND: "COC1=CC23CCCN2CCc2cc4c(cc2C3C1O)OCO4 (configuration not stated)"
  MEASURED: 1.02
- COMPOUND: "O=c1c(O)cccc2cc(O)c(O)c(O)c12"
  MEASURED: 0.813
- COMPOUND: "CCCc1ccc(-c2nc(-c3ccc(C)cc3)no2)cc1"
  MEASURED: 0.978
- COMPOUND: "CC1CN=C(NC2CCCCC2)S1 (configuration not stated)"
  MEASURED: 1.01
- COMPOUND: "N/C(=N/O)c1cnccc1C(F)(F)F"
  MEASURED: 0.991

====

- EXPERIMENT_SUMMARY: chemical genetic growth profiling, strain panel (AID 1159580)
- CONDITION_INFO: S. cerevisiae deletion strains, growth OD, locus YDR159W, strain sac3, stronger effect = lower value
The campaign covered roughly 5,500 compounds. About 2,000 (36%) were called active. About 18% were inconclusive and are not listed. This is one part of the list.

- COMPOUND: "CC(=CC1CCC(C)C2C1=C(C)CC2O)C(=O)O (stereo unspecified)"
  normalized growth: 1.04
- COMPOUND: "Cn1c(=O)[nH]c2ncn(C)c2c1=O"
  normalized growth: 0.939
- COMPOUND: "CCCc1ncc(C[n+]2ccccc2C)c(N)n1"
  normalized growth: 0.995
- COMPOUND: "COc1cc(Cc2cnc(N)nc2N)cc(OC)c1OC"
  normalized growth: 0.977
- COMPOUND: "CC(=O)Oc1c(C)c(C)c2c(c1C)CCC(C)(CCCC(C)CCCC(C)CCCC(C)C)O2 (stereo unspecified)"
  normalized growth: 0.968
- COMPOUND: "Cn1cnc2c1c(=O)[nH]c(=O)n2C"
  normalized growth: 0.973

====

This listing pairs compounds with measured normalized growth.
- EXPERIMENT_SUMMARY: chemical genetic growth profiling, strain panel (AID 1159580);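 also: tested at 20 µM; growth read once vehicle control cultures reached saturation at 30 °C; 1 = growth at the plate median or of vehicle wells; lower values mean less growth of the strain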
- CONDITION_INFO: S. cerevisiae deletion strains, growth OD, locus YDR502C, strain sam2, stronger effect = lower value
Hit rate of the full screen: of about 5,500 compounds, about 2,000 (36%) were called active. Roughly 18% stayed inconclusive and do not appear here. This is one part of the list.
PROPERTY_MEASURED: normalized growth

- COMPOUND: "CCCCCC/C=C\\CCCCCCCc1cccc(O)c1C(=O)O"
  MEASURED: 1.01
- COMPOUND: "C[C@]12CC[C@@H](O)C[C@H]1CCc1ccccc12"
  MEASURED: 0.989
- COMPOUND: "Cc1ccc(O)c(C(CCN(C(C)C)C(C)C)c2ccccc2)c1 (stereo unspecified)"
  MEASURED: 0.996
- COMPOUND: "CCCC(=O)Nc1ccc(OCC(O)CNC(C)C)c(C(C)=O)c1 (stereo unspecified)"
  MEASURED: 1.02
- COMPOUND: "CC1=C(C(=O)O)N2C(=O)[C@@H](NC(=O)[C@@H](N)c3ccc(O)cc3)[C@H]2SC1"
  MEASURED: 0.984
- COMPOUND: "CN1CCCCC1c1ccc(-c2cccnc2)nc1 (stereo unspecified)"
  MEASURED: 1.01
- COMPOUND: "O=C1C=C(O)c2ccccc2C1=O"
  MEASURED: 0.941
- COMPOUND: "O=C1c2ccccc2C(=O)c2ccccc21"
  MEASURED: 0.991
- COMPOUND: "CC(NC(C)(C)C)C(=O)c1cccc(Cl)c1 (stereo unspecified)"
  MEASURED: 1.04
- COMPOUND: "C[C@]12[C@H](O)CC3C(CC[C@@H]4C[C@@H](O)CC[C@]34C)[C@@]1(O)CC[C@@H]2C1=CC(=O)OC1 (stereo partly specified)"
  MEASURED: 0.971
- COMPOUND: "CNC(=O)Oc1cccc2c1OC(C)(C)C2"
  MEASURED: 1

====

Listed below: normalized growth values for each entry.
- EXPERIMENT_SUMMARY: chemical genetic growth profiling, strain panel (AID 1159580);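 also: tested at 20 µM; growth read once vehicle control cultures reached saturation at 30 °C; 1 = growth at the plate median or of vehicle wells; lower values mean less growth of the strain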
- CONDITION_INFO: S. cerevisiae deletion strains, growth OD, locus YIL125W, strain kgd1, stronger effect = lower value
Out of some 5,500 compounds screened, about 2,000 (36%) were called active. Roughly 18% stayed inconclusive and do not appear here. Some of the results follow.

- MOLECULE: "CN1CCC[C@H]1c1cccnc1"
  normalized growth: 0.997
- MOLECULE: "COP(=O)(NC(C)=O)SC (stereo not drawn)"
  normalized growth: 0.997
- MOLECULE: "CN1CCN(C2=Nc3cc(Cl)ccc3Nc3ccccc32)CC1"
  normalized growth: 1.02
- MOLECULE: "CON"
  normalized growth: 0.999
- MOLECULE: "C[N+]12CCC(CC1)C(OC(=O)C(O)(c1ccccc1)c1ccccc1)C2 (stereo not drawn)"
  normalized growth: 0.994
- MOLECULE: "CC(C)C1CCC(C(=O)N[C@@H](Cc2ccccc2)C(=O)O)CC1 (stereo partly drawn)"
  normalized growth: 1.01
- MOLECULE: "O=c1c(O)cccc2cc(O)c(O)c(O)c12"
  normalized growth: 0.783
- MOLECULE: "COc1ccc(CC(=O)c2ccc(O)cc2O)cc1"
  normalized growth: 1
- MOLECULE: "CC(NC(C)(C)C)C(=O)c1cccc(Cl)c1 (stereo not drawn)"
  normalized growth: 1.02
- MOLECULE: "O=C(O)CC[N+](=O)[O-]"
  normalized growth: 0.984
- MOLECULE: "COc1ccc([C@@H](C)C(=O)c2ccc(O)cc2O)cc1"
  normalized growth: 0.98
- MOLECULE: "CCCCN(CC)c1c([N+](=O)[O-])cc(C(F)(F)F)cc1[N+](=O)[O-]"
  normalized growth: 1.01
- MOLECULE: "O=C(CCc1ccc(O)cc1)c1c(O)cc(O)cc1O"
  normalized growth: 1.03

====

- EXPERIMENT_SUMMARY: chemical genetic growth profiling, strain panel (AID 1159580);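 also: tested at 20 µM; growth read once vehicle control cultures reached saturation at 30 °C; 1 = growth at the plate median or of vehicle wells; lower values mean less growth of the strain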
- CONDITION_INFO: S. cerevisiae deletion strains, growth OD, locus YBR229C, strain ROT2
The whole screen tested about 5,500 compounds, of which about 2,000 (36%) were called active. Roughly 18% stayed inconclusive and do not appear here. Rule as the data show it: active = normalized growth mostly below about 0.91 (no sharp cut-off); inconclusive = no clear call, values can overlap the other calls; inactive = mostly above about 0.92. This is one part of the list.
Outcome codes: y = active, n = inactive

- MOLECULE: "C=CC1CN2CCC1CC2C(OC(C)=O)c1ccnc2ccc(OC)cc12 (centres undefined)"
  LABEL_VALUE: "n"
- MOLECULE: "O=[N+]([O-])c1cc(C(F)(F)F)ccc1Sc1ccc(Cl)cc1"
  LABEL_VALUE: "n"
- MOLECULE: "COc1ccc(/C=C2/C(=O)N(c3cccc(Cl)c3)N=C2C)cc1"
  LABEL_VALUE: "n"
- MOLECULE: "CCCc1ccc(/C(C)=N\\O)cc1"
  LABEL_VALUE: "y"
- MOLECULE: "CC(C)C1CCC(C(=O)N[C@@H](Cc2ccccc2)C(=O)O)CC1 (some centres undefined)"
  LABEL_VALUE: "n"
- MOLECULE: "C/C(=N/O)c1ccn(S(=O)(=O)c2ccc(Cl)cc2)c1"
  LABEL_VALUE: "n"
- MOLECULE: "COc1ccc([C@@H](C)C(=O)c2ccc(O)cc2O)cc1"
  LABEL_VALUE: "n"
- MOLECULE: "COc1ccc(CC(=O)c2ccc(O)cc2O)cc1"
  LABEL_VALUE: "n"
- MOLECULE: "COc1cc2ncnc(Nc3cccc(Cl)c3)c2cc1OC"
  LABEL_VALUE: "n"
- MOLECULE: "O=C1c2ccccc2C(=O)c2ccccc21"
  LABEL_VALUE: "n"
- MOLECULE: "CCCc1ccc(-c2nc(-c3ccc(C)cc3)no2)cc1"
  LABEL_VALUE: "n"
- MOLECULE: "CNC(C)[C@@H]1CC[C@@H](N)[C@@H](OC2[C@@H](N)C[C@@H](N)[C@H](OC3OC[C@](C)(O)[C@H](NC)[C@H]3O)[C@H]2O)O1 (some centres undefined)"
  LABEL_VALUE: "n"
- MOLECULE: "O=C(O)CCC(=O)OC[C@@H](NC(=O)C(Cl)Cl)[C@H](O)c1ccc([N+](=O)[O-])cc1"
  LABEL_VALUE: "n"
- MOLECULE: "Cn1c(Sc2ccc(C(F)(F)F)cc2[N+](=O)[O-])nnc1C(F)(F)F"
  LABEL_VALUE: "n"
- MOLECULE: "COc1cccc(C2SCc3cc(C)c(C)cc3CS2)c1O"
  LABEL_VALUE: "n"
- MOLECULE: "CNC(=O)Oc1ccccc1OC(C)C"
  LABEL_VALUE: "n"
- MOLECULE: "Cc1onc(-c2c(Cl)cccc2Cl)c1C(=O)N1CCN(c2ncnc3scc(-c4ccccc4)c23)CC1"
  LABEL_VALUE: "n"
- MOLECULE: "COc1cc(O)ccc1C(C)=O"
  LABEL_VALUE: "n"
- MOLECULE: "Cc1c(C)c(C)c(S(=O)(=O)Nc2ccccc2N)c(C)c1C"
  LABEL_VALUE: "n"
- MOLECULE: "CNC(C)(C)Cc1ccccc1"
  LABEL_VALUE: "n"
- MOLECULE: "Nc1nc(Sc2cc(-n3cccc3)c(Cl)cc2[N+](=O)[O-])n[nH]1"
  LABEL_VALUE: "n"
- MOLECULE: "C/C(=N/O)c1ccc2c(c1)C(C)(C)CCC2(C)C"
  LABEL_VALUE: "n"
- MOLECULE: "NC(=O)C1=C(O)C(=O)N(C2CCCCC2)C1"
  LABEL_VALUE: "n"
- MOLECULE: "CC(=N/O)/C(C)=C/c1ccc(Cl)cc1"
  LABEL_VALUE: "y"
